- measured_target: MsepCSP5 (Mythimna separata)
- Sequence (A0A5H2NAD7 1-127): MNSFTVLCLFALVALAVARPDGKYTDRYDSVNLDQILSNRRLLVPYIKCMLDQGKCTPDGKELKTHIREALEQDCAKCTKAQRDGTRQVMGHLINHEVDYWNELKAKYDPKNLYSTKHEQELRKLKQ
- protocol_details: Fluorescence competitive binding assay with the probe 1-NPN
- protocol_conditions: Ki, pH 7.4; Ki = IC50/(1+[1-NPN]/K1-NPN)
readout_name: Ki (µM)

Past entries and their recorded results:
> print(dat)
                                   compound  unit.info  value.measured
1             CCCCCC(C)O (stereo not shown)         µM            24.9
2  C=CC(C)(O)CCC=C(C)CCC=C(C)C (mixture of isomers)         µM            7.23

P: CCCCCCCCCCCCCCCCCCC
Q: C=CC(O)CCCCC (stereo not shown)
Request: Lab log: flag the item ( P or Q ) with the smaller Ki figure. Give the label of your selection.
Response: Q
(Q: 6.43 µM, P: 19.5 µM)
